system: HCT-15; assay: Growth inhibition of human HCT15 cells assessed as cell growth at 10 uM after 48 hrs by sulforhodamine B assay; assay type: functional; details: HCT-15, 48 h, read-out: Activity
assay.readout: growth at 10 µM (%)
Report as a plain number; the unit % is understood.

Quick one: growth at 10 µM for COc1cccc(-n2nc(C(=O)NCc3ccccc3OC)nc2-c2cc(OC)c(OC)c(OC)c2)c1 ?
96.8

Given the entry CCOc1ccc(-n2nc(C(=O)Nc3cc(OC)c(OC)c(OC)c3)nc2-c2cc(OC)c(OC)c(OC)c2)cc1 , report its measured growth at 10 µM.
82.1

Endpoint output: growth at 10 µM of CCOc1ccc(-n2nc(C(=O)Nc3ccc(F)c(F)c3F)nc2-c2cc(OC)c(OC)c(OC)c2)cc1 . Value?
64.3

Quick check: growth at 10 µM of CCOc1ccc(-n2nc(C(=O)Nc3ccc(OC)c(O)c3)nc2-c2cc(OC)c(OC)c(OC)c2)cc1 ?
97.2

Recorded growth at 10 µM of CCOc1ccc(-n2nc(C(=O)NCc3cc(F)cc(F)c3)nc2-c2cc(OC)c(OC)c(OC)c2)cc1 , please.
61

Name the reported growth at 10 µM value associated with the compound CCOc1ccc(-n2nc(C(=O)Nc3ccccc3)nc2-c2cc(OC)c(OC)c(OC)c2)cc1
35.4

I have this compound here, CCOc1ccc(-n2nc(C(=O)NCc3cccc(OC)c3)nc2-c2cc(OC)c(OC)c(OC)c2)cc1 , and I need its recorded growth at 10 µM.
90

Which growth at 10 µM reading was recorded for the compound COc1cccc(-n2nc(C(=O)NCc3ccccc3C)nc2-c2cc(OC)c(OC)c(OC)c2)c1 ?
74.3

###

test system: 786-0; assay: Growth inhibition of human 786-0 cells assessed as cell growth at 10 uM after 48 hrs by sulforhodamine B assay; type: functional; settings: 786-0, 48 h, read-out: Activity
assay.readout: growth at 10 µM (%)
Give your result in % as a bare value.

Which growth at 10 µM is listed for CCOc1ccc(-n2nc(C(=O)Nc3cc(OC)c(OC)c(OC)c3)nc2-c2cc(OC)c(OC)c(OC)c2)cc1 ?
77.1

Entry under review: CCOc1ccc(-n2nc(C(=O)Nc3ccc(OC)c(O)c3)nc2-c2cc(OC)c(OC)c(OC)c2)cc1 . Reported growth at 10 µM?
94.5

Fill blank: measured growth at 10 µM of the compound COc1cccc(-n2nc(C(=O)NCc3ccccc3OC)nc2-c2cc(OC)c(OC)c(OC)c2)c1 is ____.
94

Would you kindly share the measured growth at 10 µM for CCOc1ccc(-n2nc(C(=O)Nc3ccccc3OC)nc2-c2cc(OC)c(OC)c(OC)c2)cc1 ?
79.1

###

tested on: DU-145; assay: Growth inhibition of human DU145 cells assessed as cell growth at 10 uM after 48 hrs by sulforhodamine B assay; type: functional; settings: DU-145, 48 h, read-out: Activity
Provide the recorded growth at 10 µM for the entries that follow.
Output should be the measured figure followed by the unit it is expressed in.

Kindly state the measured growth at 10 µM obtained for CCOc1ccc(-n2nc(C(=O)Nc3ccc(OC)c(O)c3)nc2-c2cc(OC)c(OC)c(OC)c2)cc1 with DU-145.
98.5%

Record CCOc1ccc(-n2nc(C(=O)Nc3cc(F)cc(F)c3)nc2-c2cc(OC)c(OC)c(OC)c2)cc1 : what is its growth at 10 µM with DU-145?
98.2%

Record lookup: for DU-145, what growth at 10 µM belongs to CCOc1ccc(-n2nc(C(=O)NCc3cc(F)cc(F)c3)nc2-c2cc(OC)c(OC)c(OC)c2)cc1 ?
86.9%

Recall the recorded growth at 10 µM for CCOc1ccc(-n2nc(C(=O)NCc3cccc(OC)c3)nc2-c2cc(OC)c(OC)c(OC)c2)cc1 with DU-145 and state it.
107%

Identify the measured growth at 10 µM of COc1cccc(-n2nc(C(=O)NCc3ccccc3C)nc2-c2cc(OC)c(OC)c(OC)c2)c1 for DU-145.
94.2%

# returns recorded growth at 10 µM (system: DU-145) for CCOc1ccc(-n2nc(C(=O)Nc3ccccc3OC)nc2-c2cc(OC)c(OC)c(OC)c2)cc1
95.6%

Form field - read-out: growth at 10 µM; system: DU-145; submitted item: CCOc1ccc(-n2nc(C(=O)Nc3cccc(OC)c3)nc2-c2cc(OC)c(OC)c(OC)c2)cc1
94.8%

Requested read-out growth at 10 µM, target or system DU-145, entry CCOc1ccc(-n2nc(C(=O)Nc3ccccc3)nc2-c2cc(OC)c(OC)c(OC)c2)cc1
89.6%

Give DU-145 growth at 10 µM for CCOc1ccc(-n2nc(C(=O)NCc3ccccc3OC)nc2-c2cc(OC)c(OC)c(OC)c2)cc1
65.2%

Entry CCOc1ccc(-n2nc(C(=O)Nc3cc(OC)c(OC)c(OC)c3)nc2-c2cc(OC)c(OC)c(OC)c2)cc1 , system DU-145: what growth at 10 µM was measured?
99.1%

// map COc1cccc(-n2nc(C(=O)NCc3ccccc3OC)nc2-c2cc(OC)c(OC)c(OC)c2)c1 to recorded growth at 10 µM (system: DU-145)
106%

Given the entry CCOc1ccc(-n2nc(C(=O)Nc3ccc(F)c(F)c3)nc2-c2cc(OC)c(OC)c(OC)c2)cc1 , what growth at 10 µM was observed with DU-145?
80%

# get_value(readout= growth at 10 µM, system= DU-145) for CCOc1ccc(-n2nc(C(=O)Nc3ccc(F)c(F)c3F)nc2-c2cc(OC)c(OC)c(OC)c2)cc1
105%

Notebook entry, DU-145 assay: growth at 10 µM of COc1cccc(-n2nc(C(=O)Nc3ccccc3)nc2-c2cc(OC)c(OC)c(OC)c2)c1 = ?
104%
